biological target: MeCP2-TBL1 interaction (MeCP2-SmBiT / TBL1-LgBiT) (Mus musculus, UniProt Q9QXE7); construct: expressed in transfected cells; crude lysate used as a cell-free assay; test: MeCP2-TBL1 NanoLuc luciferase complementation assay (cell-free, extracts of transfected HEK293 cells); assay type: binding, human; conditions: primary screen of Asinex library, single well per compound;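 further: each compound tested at 20 µM final concentration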
Sequence (Q9QXE7 166-527): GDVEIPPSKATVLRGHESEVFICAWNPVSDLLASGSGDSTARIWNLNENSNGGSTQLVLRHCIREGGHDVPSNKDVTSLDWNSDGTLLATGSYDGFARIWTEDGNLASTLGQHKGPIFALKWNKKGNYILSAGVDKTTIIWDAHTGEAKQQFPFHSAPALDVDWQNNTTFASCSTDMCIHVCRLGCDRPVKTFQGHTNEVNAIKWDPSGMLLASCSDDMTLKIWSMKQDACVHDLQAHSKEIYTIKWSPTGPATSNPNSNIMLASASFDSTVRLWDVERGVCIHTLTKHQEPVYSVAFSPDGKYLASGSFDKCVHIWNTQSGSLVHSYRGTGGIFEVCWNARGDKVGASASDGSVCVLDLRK
quantity kind: Inhibition percent
Numbers only.

Sample records with Inhibition percent:
COc1ccccc1N1[C@H]2CCCN(C(=O)c3cccc(OCC(=O)O)c3)[C@H]2CC1(C)C :: -3.82
COc1ccc(C(=O)N2CCCC(Cc3ccccn3)C2)cc1NCc1cccnc1 (stereo not shown) :: -2.98

Provide Inhibition percent for all items below, preserving their order.
1. CN1CCN(c2cc(C(=O)N3CCC(O)(CN4CCN(c5ccccc5)CC4)C3)ccn2)CC1 (stereo not shown)
2. O=C1CCCC[C@]2(CN(C(=O)CCc3ccc(F)cc3)C[C@H]2c2ccccc2)N1
3. CC1(C)Oc2c(cccc2C(F)(F)F)[C@@H]2O[C@@H]3CCN(C(=O)CCCc4cn[nH]c4)[C@@H]3C[C@H]21
4. COc1cccc2c1OC(C)(C)[C@H]1C[C@@H]3[C@H](CCN3CC(=O)O)O[C@H]21
5. Cc1ccc(=O)n(CC(=O)N2CCOC3(CC=CCN(CCc4ccccc4)C3=O)C2)n1 (stereo not shown)
6. O=C(NCCC1CCCCN1C(=O)CCN1C(=O)CCNC1=O)c1ccccc1 (stereo not shown)
7. CC1(C)Oc2ccccc2[C@@H]2O[C@@H]3CCN(C(=O)CCN4CCCC4=O)[C@@H]3C[C@H]21
8. Cc1nonc1COc1ccccc1C(=O)N1C2CCC1CC(Cc1cnc3ccccc3c1)C2 (stereo not shown)

A)
[-1.97, -1.17, 7.09, -2.31, 3.93, 0.45, 0.48, 3.35]

Provide Inhibition percent for all items below, preserving their order.
1. CN(Cc1ccccc1)[C@@H]1[C@@H](O)[C@H](Oc2ccccc2F)C[C@H]1NC(=O)CC(C)(C)CC(=O)O
2. COCCC(=O)N[C@]1(C)C[C@@H](c2ccc(Cl)cc2)O[C@@H](c2cc(Br)ccc2O)C1
3. O=C(c1cccc(Nc2ncccn2)c1)N1C2CCC1CC(Cc1ccc3ccncc3c1)C2 (stereo not shown)
4. CC(C)(NC(=O)Cc1ccccc1)C(=O)N1CCCC(Cc2cccn3ccnc23)CC1 (stereo not shown)
5. Cc1nc(C2CCN(C(=O)C3CCCCC3)C2)nc2c1CC(=O)N2CCCc1ccccc1 (stereo not shown)
6. CC1(C)Oc2c(O)cccc2[C@@H]2O[C@@H]3CCN(C(=O)c4cccc(Cn5ccnc5)c4)[C@@H]3C[C@H]21

A)
[1.25, 5.22, 3.03, -2.43, -1.14, 0.92]
